Target: Fatty-acid amide hydrolase 1 (Homo sapiens, UniProt O00519)
Sequence (O00519 whole entry): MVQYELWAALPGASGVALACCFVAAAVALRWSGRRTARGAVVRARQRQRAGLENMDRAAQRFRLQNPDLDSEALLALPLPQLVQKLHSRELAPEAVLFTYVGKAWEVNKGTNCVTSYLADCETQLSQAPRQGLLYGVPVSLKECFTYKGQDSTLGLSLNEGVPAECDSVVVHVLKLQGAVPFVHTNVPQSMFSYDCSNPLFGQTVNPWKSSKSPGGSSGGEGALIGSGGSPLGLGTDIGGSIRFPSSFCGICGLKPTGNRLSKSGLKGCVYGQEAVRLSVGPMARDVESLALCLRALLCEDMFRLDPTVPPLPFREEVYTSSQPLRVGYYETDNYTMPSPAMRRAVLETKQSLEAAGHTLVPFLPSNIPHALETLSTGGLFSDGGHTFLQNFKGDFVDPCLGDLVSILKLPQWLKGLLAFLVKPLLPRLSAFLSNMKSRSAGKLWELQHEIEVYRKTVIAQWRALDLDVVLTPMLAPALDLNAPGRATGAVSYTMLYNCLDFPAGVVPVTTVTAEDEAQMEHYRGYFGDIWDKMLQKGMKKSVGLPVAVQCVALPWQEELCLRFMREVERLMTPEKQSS

structure-as-smiles: CCCCCCCC/C=C\CCCCCCCC(=O)c1ncc(-c2ccccn2)o1
unit-name: µM
modifier-sign: =
IC50: 0.15

structure-as-smiles: CCCCCCCCC#CCCCCCCCC(=O)c1nc2ncccc2o1
unit-name: µM
modifier-sign: =
IC50: 0.002

structure-as-smiles: O=C(c1ccccc1)C(F)(F)F
unit-name: µM
modifier-sign: >
IC50: 100

structure-as-smiles: O=C(Cc1ccccc1)C(F)(F)F
unit-name: µM
modifier-sign: >
IC50: 100

structure-as-smiles: CCCCCCCC/C=C\CCCCCCCC(=O)C(F)(F)F
unit-name: µM
modifier-sign: =
IC50: 4.5
